Biological target: Mouse ACVR2A (mouse, UniProt P27038 20-135, limits assumed); also: test concentration or dose not given here
Sequence (P27038 20-135 limits assumed): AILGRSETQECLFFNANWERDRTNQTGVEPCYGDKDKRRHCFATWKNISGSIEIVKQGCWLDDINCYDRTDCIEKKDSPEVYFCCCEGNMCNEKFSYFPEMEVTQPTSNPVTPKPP
Test: ELISA
Description: The binding of ACVR2A-specific monoclonal antibodies to human ACVR2A, mouse ACVR2A, biotinylated goat anti-human kappa light chain (positive control) and human Fc (negative control) were determined by ELISA.
recorded endpoint: optical density (OD)
Answers are plain numbers, in OD.

Consider the following illustrative entries.
[[record]]
binder = "375_B03 (antibody, V domains shown, VH/VL only) VH: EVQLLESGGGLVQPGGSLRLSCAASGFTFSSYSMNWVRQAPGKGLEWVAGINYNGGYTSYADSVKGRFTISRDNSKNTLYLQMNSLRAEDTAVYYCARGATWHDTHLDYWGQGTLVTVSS VL: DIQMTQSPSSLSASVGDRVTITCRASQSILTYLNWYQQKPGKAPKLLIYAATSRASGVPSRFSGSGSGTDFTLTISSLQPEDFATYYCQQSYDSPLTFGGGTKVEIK"
recorded_endpoint = "optical density"
unit_annotation = "OD"
numeric_value = 3.7

[[record]]
binder = "374_D09 (antibody, V domains shown, VH/VL only) VH: EVQLLESGGGLVQPGGSLRLSCAASGFTFDSYGMNWVRQAPGKGLEWVANINYNGGYKGYADSVKGRFTISRDNSKNTLYLQMNSLRAEDTAVYYCARGATWHDTHLDYWGQGTLVTVSS VL: DIQMTQSPSSLSASVGDRVTITCRASQSIISYVNWYQQKPGKAPKLLIYAATSLASGVPSRFSGSGSGTDFTLTISSLQPEDFATYYCQQSYDTPLTFGGGTKVEIK"
recorded_endpoint = "optical density"
unit_annotation = "OD"
numeric_value = 3.65


Provide reported optical density for each item, in the same order as listed.
1. 369_E08 (antibody, V domains shown, VH/VL only) VH: EVQLLESGGGLVQPGGSLRLSCAASGFTFSSYSMNWVRQAPGKGLEWVASINYNSGYTGYADSVKGRFTISRDNSKNTLYLQMNSLRAEDTAVYYCARGATWHDTHLDYWGQGTLVTVSS VL: DIQMTQSPSSLSASVGDRVTITCRASQSILTYVNWYQQKPGKAPKLLIYAATSRASGVPSRFSGSGSGTDFTLTISSLQPEDFATYYCQQSYDSPLTFGGGTKVEIK
2. 365_A11 (antibody, V domains shown, VH/VL only) VH: EVQLLESGGGLVQPGGSLRLSCAASGFTFDDYGMNWVRQAPGKGLEWVSGINYNSGYTSYADSVKGRFTISRDNSKNTLYLQMNSLRAEDTAVYYCARSANWHDTALDYWGQGTLVTVSS VL: DIQMTQSPSSLSASVGDRVTITCRASQSILSYLNWYQQKPGKAPKLVIYAATSLASGVPSRFSGSGSGTDFTLTISSLQPEDFATYYCQQSYESPLTFGGGTKVEIK
3. 370_E05 (antibody, V domains shown, VH/VL only) VH: EVQLLESGGGLVQPGGSLRLSCAASGFTFSSYGMNWVRQAPGKGLEWVSNINYNGGYKGYADSVKGRFTISRDNSKNTLYLQMNSLRAEDTAVYYCARGATWHDTHLDYWGQGTLVTVSS VL: DIQMTQSPSSLSASVGDRVTITCRASQSISTYLNWYQQKPGKAPKLVIYAVTSRASGVPSRFSGSGSGTDFTLTISSLQPEDFATYYCQQSYNSPLTFGGGTKVEIK

Result:
1.23
1.94
2.77
